- Test system: subclones of RKO colon adenocarcinoma cells (RKOp27 or RKOp21) arrested by Ponasterone A
- Assay Details: Alamar Blue cell viability assay, cell cycle specific mode of action: cells arrested by ectopic p27Kip1 induced by Ponasterone A versus proliferating cells
- Assay type: cell-based
- Reported Conditions: Homo sapiens, RKO p27 induced (arrested) cells, 10 μM Ponasterone A, 72 hours, value = class bound given in Table A, read-out: −logIC50 RKO p27 induced (arrested) (converted)
Endpoint: IC50

Request: Recorded IC50 of CC(CC(=O)Nc1sc2c(c1C#N)CCC(OC(=O)NCC1CCCCO1)C2)c1ccccc1 (stereo not shown) [Example 296] , please.
Result: ≥ 50.1 µM

Request: Again, but for CCOc1ccccc1CCC(=O)Nc1sc2c(c1C#N)CCC(OC(=O)NCc1nccn1C)C2 (stereo not shown) [Example 173]
Result: ≥ 10 µM

Request: Again, but for Cc1nc(CNC(=O)OC2CCc3c(sc(NC(=O)CC(C)c4ccccc4)c3C#N)C2)cs1 (stereo not shown) [Example 351]
Result: ≥ 100 µM

Request: Again, but for N#Cc1c(NC(=O)/C=C/c2cccnc2)sc2c1CC[C@H](COC(=O)N1CCCC1)C2 [Example 68a]
Result: ≥ 100 µM

Request: Again, but for CCOc1ccccc1CCC(=O)Nc1sc2c(c1C#N)CCC(COC(=O)NCc1cn(C)cn1)C2 (stereo not shown) [Example 178]
Result: ≥ 50.1 µM

Request: Again, but for CCOc1ccccc1CCC(=O)Nc1sc2c(c1C#N)CCC(COC(=O)NCc1nccs1)C2 (stereo not shown) [Example 199]
Result: ≥ 100 µM

Request: Again, but for CCn1nccc1CNC(=O)OC1CCc2c(sc(NC(=O)CC(C)c3ccccc3)c2C#N)C1 (stereo not shown) [Example 303]
Result: ≥ 50.1 µM

###

# maps each entry to its IC50
- System: subclones of RKO colon adenocarcinoma cells (RKOp27 or RKOp21) arrested by Ponasterone A
- Assay Details: Alamar Blue cell viability assay, cell cycle specific mode of action: cells arrested by ectopic p27Kip1 induced by Ponasterone A versus proliferating cells
- Assay type: cell-based
- Reported Conditions: Homo sapiens, RKO p27 induced (arrested) cells, 10 μM Ponasterone A, 72 hours, value = class bound given in Table A, read-out: −logIC50 RKO p27 induced (arrested) (converted)

# count of solved cases: 3
CC(C)NC(=O)OCC1CCc2c(sc(NC(=O)/C=C/c3cccnc3)c2C#N)C1 (stereo not shown): ≥ 100 µM
CC(CC(=O)Nc1sc2c(c1C#N)CCC(COC(=O)NCc1ccnn1C)C2)c1ccccc1 (stereo not shown): ≥ 50.1 µM
CC(CC(=O)Nc1sc2c(c1C#N)CCC(COC(=O)NCC1CCOCC1)C2)c1ccccc1 (stereo not shown): ≥ 50.1 µM

Request: Recorded IC50 of Cn1ccnc1CNC(=O)OCC1CCc2c(sc(NC(=O)/C=C/c3cccnc3)c2C#N)C1 (stereo not shown) , please.
Result: ≥ 100 µM

###

- System: subclones of RKO colon adenocarcinoma cells (RKOp27 or RKOp21) arrested by Ponasterone A
- Assay Details: Alamar Blue cell viability assay, cell cycle specific mode of action: cells arrested by ectopic p27Kip1 induced by Ponasterone A versus proliferating cells
- Assay type: cell-based
- Reported Conditions: Homo sapiens, RKO p27 induced (arrested) cells, 10 μM Ponasterone A, 72 hours, value = class bound given in Table A, read-out: −logIC50 RKO p27 induced (arrested) (converted)
- Procedure: To determine the cell cycle specific mode of action, subclones of RKO colon adenocarcinoma cells (RKOp27 or RKOp21 as described by Schmidt et al. in Oncogene 19, 2423-2429; 2000) are seeded into 96 well flat bottom plates at a density of 15000 cells per well in a volume of 50 μl per well in DMEM growth medium with 10% FCS containing 10 μM Ponasterone A. 24 hours after seeding the 50 μl each of the compound dilutions in DMEM medium are added into each well of the 96 Well plate. […]
# maps each entry to its IC50

# count of solved cases: 10
Cc1cc(CNC(=O)OC2CCc3c(sc(NC(=O)CC(C)c4ccccc4)c3C#N)C2)no1 (stereo not shown): ≥ 50.1 µM
COc1cccc(CCC(=O)Nc2sc3c(c2C#N)CCC(OC(=O)NCc2csc(C)n2)C3)c1 (stereo not shown): ≥ 100 µM
N#Cc1c(NC(=O)/C=C/c2cccnc2)sc2c1CCC(OC(=O)NCc1ncc[nH]1)C2 (stereo not shown): ≥ 100 µM
COCCNC(=O)OC1CCc2c(sc(NC(=O)/C=C/c3cccnc3)c2C#N)C1 (stereo not shown): ≥ 100 µM
COC(=O)[C@@H]1CCCN1C(=O)OC1CCc2c(sc(NC(=O)/C=C/c3cccnc3)c2C#N)C1 (stereo partly shown): ≥ 100 µM
Cc1cc(CNC(=O)OC2CCc3c(sc(NC(=O)CC(C)c4ccccc4)c3C#N)C2)on1 (stereo not shown): ≥ 50.1 µM
Cn1cc(CNC(=O)OCC2CCc3c(sc(NC(=O)/C=C/c4cccnc4)c3C#N)C2)cn1 (stereo not shown): ≥ 100 µM
Cn1cccc1CNC(=O)OC1CCc2c(sc(NC(=O)/C=C/c3cccnc3)c2C#N)C1 (stereo not shown): ≥ 100 µM
CC(CC(=O)Nc1sc2c(c1C#N)CCC(OC(=O)N1CCOCC1)C2)c1ccccc1 (stereo not shown): ≥ 50.1 µM
Cc1cc(CNC(=O)OC[C@@H]2CCc3c(sc(NC(=O)/C=C/c4cccnc4)c3C#N)C2)no1 [Example 47b]: ≥ 100 µM

Request: Give recorded IC50 with subclones of RKO colon adenocarcinoma cells (RKOp27 or RKOp21) arrested by Ponasterone A for the following molecule: CCOc1ccccc1CCC(=O)Nc1sc2c(c1C#N)CCC(COC(=O)NCCn1ccnc1)C2 (stereo not shown)
Result: ≥ 10 µM

Request: Again, but for N#Cc1c(NC(=O)/C=C/c2cccnc2)sc2c1CCC(COC(=O)NCC1CCCO1)C2 (stereo not shown)
Result: ≥ 100 µM

Request: Again, but for CC(CC(=O)Nc1sc2c(c1C#N)CCC(COC(=O)NCc1cccn1C)C2)c1ccccc1 (stereo not shown)
Result: ≥ 50.1 µM

Request: Again, but for CCNC(=O)OC1CCc2c(sc(NC(=O)/C=C/c3ccccc3OCC)c2C#N)C1 (stereo not shown)
Result: ≥ 10 µM

Request: Again, but for CCOc1ccccc1CCC(=O)Nc1sc2c(c1C#N)CCC(COC(=O)NCC1CCOCC1)C2 (stereo not shown)
Result: ≥ 10 µM

Request: Again, but for CCNC(=O)OCC1CCc2c(sc(NC(=O)CC(C)c3cccnc3)c2C#N)C1 (stereo not shown)
Result: ≥ 100 µM

Request: Again, but for N#Cc1c(NC(=O)/C=C/c2cccnc2)sc2c1CCC(OC(=O)NCC1CCOCC1)C2 (stereo not shown)
Result: ≥ 100 µM

Request: Again, but for Cn1nccc1CNC(=O)OCC1CCc2c(sc(NC(=O)/C=C/c3cccnc3)c2C#N)C1 (stereo not shown)
Result: ≥ 100 µM

Request: Again, but for COC(=O)OC1CCc2c(sc(NC(=O)/C=C/c3cccnc3)c2C#N)C1 (stereo not shown)
Result: ≥ 100 µM

Where do the numbers come from? From patent US20110044938A1.
